Experiment: Serum stability assay in human serum (LC/MS)
Conditions: human, Remaining peptide (%), 37 °C, incubation time 8 h, relative to 0 h = 100%, technical replicates
Bridge positions count the residues as written; N and C are the ends. Square brackets hold non-standard residues; d marks the D form. Peptide text beside a SMILES is read from it.
Measured Property: remaining at 8 h, 10 μM (%)

CC(C)C[C@@H]1NC(=O)[C@@H](Cc2ccc(O)cc2)NC(=O)CSC[C@H](C(N)=O)NC(=O)[C@H](C)NC(=O)[C@H](C)NC(=O)[C@H](Cc2ccc(O)cc2)NC(=O)[C@H](CCCNC(=N)N)NC(=O)[C@H](Cc2ccc(O)cc2)NC(=O)[C@H](C)NC(=O)[C@H](CO)NC(=O)[C@H](Cc2ccc(O)cc2)NC(=O)[C@H]([C@@H](C)O)NC(=O)[C@H](CO)NC(=O)[C@H](C)NC(=O)[C@H](Cc2ccc(O)cc2)NC(=O)[C@H](Cc2c[nH]cn2)NC1=O [GM3γ^210A] ({CH2CO}-[dY]LHYASTYSAYRYAA[dC]-NH2; thioether N-16) ... 2.04
